Target: BCL6-BTB (Homo sapiens, UniProt P41182)
Assay: MicroScale Thermophoresis binding to BCL6-BTB
Settings: affinity to the BCL6-BTB domain
measurementName: Kd

The value of Kd measured for the compound O=C(O)CC(C(=O)O)N1C(=O)/C(=C2/C(=O)Nc3ccc(Br)cc32)SC1=S (stereo not shown) turned out to be ~120 µM

* * *

Molecular target: BCL6-BTB (Homo sapiens)
Assay: MicroScale Thermophoresis binding to BCL6-BTB
Settings: Table 10
measurementName: Kd (µM)
The figure you give is taken to be in µM; do not add the unit.

What the record says about O=C(CN1C(=O)C(=O)c2cc(Cl)ccc21)OCc1ccsc1 [Compound 367] : Kd is 324

* * *

Tested on: SUDHL6 DLBCL cells
Assay: Growth inhibition of DLBCL cells, SUDHL6
Assay type: cell-based
Conditions: Homo sapiens, SU-DHL-6; Table 2; BCL-6 dependent; 48 hours; read-out: GI50 SUDH6
Listed below: GI50 values for each entry.
Quick reminder: number only, in µM, skip the unit.

Please review the entries below; each comes with its answer.
{"molecule": "O=C(O)CCN1C(=O)/C(=C2/C(=O)Nc3c(Cl)cccc32)SC1=S [Compound 1167]", "targetEntity": "SUDHL6 DLBCL cells", "measurementName": "GI50", "measurementUnits": "µM", "reading": 29}
{"molecule": "O=C(O)CCN1C(=O)/C(=C2/C(=O)Nc3ccc([N+](=O)[O-])cc32)SC1=S [Compound 1169]", "targetEntity": "SUDHL6 DLBCL cells", "measurementName": "GI50", "measurementUnits": "µM", "reading": 30}
{"molecule": "O=C(O)CCN1C(=O)C(C2(O)C(=O)Nc3ccc(Br)cc32)SC1=S (stereo not drawn) [Compound 2025]", "targetEntity": "SUDHL6 DLBCL cells", "measurementName": "GI50", "measurementUnits": "µM", "reading": 14}
{"molecule": "O=C(O)CCN1C(=O)/C(=C2/C(=O)Nc3c(F)cccc32)SC1=S [Compound 1117]", "targetEntity": "SUDHL6 DLBCL cells", "measurementName": "GI50", "measurementUnits": "µM", "reading": 25}
{"molecule": "O=C(O)CCN1C(=O)/C(=C2/C(=O)Nc3ccc(Cl)cc32)SC1=S [Compound 1085]", "targetEntity": "SUDHL6 DLBCL cells", "measurementName": "GI50", "measurementUnits": "µM", "reading": 14}

SUDHL6 DLBCL cells GI50 of O=C(O)CCN1C(=O)/C(=C2/C(=O)Nc3ccc(I)cc32)SC1=S [Compound 2005] is 25

Lab entry: SUDHL6 DLBCL cells assay, molecule O=C(O)CCN1C(=O)SC(C2(O)C(=O)Nc3ccc(Cl)cc32)C1=O (stereo not drawn) [Compound 2023] , GI50 = 21

Entry O=C(O)CCN1C(=O)SC(C2(O)C(=O)Nc3ccc(I)cc32)C1=O (stereo not drawn) [Compound 2027] : GI50 on SUDHL6 DLBCL cells = 7

* * *

This listing pairs compounds with measured GI50.
System: SUDHL6 DLBCL cells
Assay: Growth inhibition of DLBCL cells, SUDHL6
Format: cell-based
Settings: Homo sapiens, SU-DHL-6; Table 2; BCL-6 dependent; 48 hours; read-out: GI50 SUDH6

Recorded GI50, per entry:
{"compound": "O=C(O)CN1C(=O)/C(=C2/C(=O)Nc3c(Cl)cccc32)SC1=S [Compound 2037]", "reading": "> 40 µM"}
{"compound": "O=C(O)CN1C(=O)/C(=C2/C(=O)Nc3ccc(Br)cc32)SC1=S [Compound 2041]", "reading": "> 40 µM"}
{"compound": "O=C(O)CN1C(=O)/C(=C2/C(=O)Nc3ccc(Cl)cc32)SC1=S [Compound 2031]", "reading": "> 40 µM"}
{"compound": "O=C(O)CN1C(=O)/C(=C2/C(=O)Nc3c(F)cccc32)SC1=S [Compound 2035]", "reading": "> 40 µM"}

Please examine the following record next.
Readout GI50 for O=C(O)CCN1C(=O)/C(=C2/C(=O)Nc3ccc(F)cc32)SC1=S [Compound 1115] , test system SUDHL6 DLBCL cells, was 26 µM

* * *

System: SUDHL6 DLBCL cells
Assay: Growth inhibition of DLBCL cells, SUDHL6
Format: cell-based
Conditions: Homo sapiens, SU-DHL-6; Table 9; Bcl6 dependent; read-out: GI 50 SUDHL6
measurementName: GI50 (nM)
Answer with a number only, understood to be in nM.

// field: GI50; key: O=C(CN1C(=O)C(=O)c2cc(Cl)ccc21)OCc1cccc(F)c1 ; value = 2000

* * *

System: Toledo DLBCL cells
Experiment: Growth inhibition of DLBCL cells, Toledo
Format: cell-based
Details: Homo sapiens, Table 8, Bcl-6 independent
measurementName: GI50

{"compoundSmiles": "O=C(O)CCN1C(=O)/C(=C2/C(=O)N(CC(=O)OCc3ccccc3)c3ccc(Br)cc32)SC1=S", "targetEntity": "Toledo DLBCL cells", "GI50": "> 30 µM"}

Sample O=C(CN1C(=O)C(=O)c2cc(F)ccc21)OCc1ccccc1 ; GI50 observed: > 40 µM

The compound listed as O=C(CN1C(=O)C(=O)c2cc(Cl)ccc21)OCc1ccccc1 shows GI50 equal to > 40 µM

Please fill in: GI50 reported for O=C(O)CCN1C(=O)/C(=C2/C(=O)N(CC(=O)OCc3ccccc3)c3ccc(Cl)cc32)SC1=S = > 30 µM

Entry O=C(O)CCN1C(=O)/C(=C2/C(=O)N(CC(=O)OCc3ccccc3)c3ccc(F)cc32)SC1=S — recorded GI50 = > 30 µM

* * *

Listed here: items and their measured Kd.
Target: BCL6-BTB (Homo sapiens, UniProt P41182)
Assay: MicroScale Thermophoresis binding to BCL6-BTB
Conditions: Table 13
Kindly provide the numeric value in µM only, without the unit symbol.

{"molecule": "CCOc1ccc2[nH]c(SCc3ccccc3)nc2c1 [Compound 1063]", "measurementUnits": "µM", "Kd": 315}
{"molecule": "Clc1ccc2[nH]c(SCc3ccccc3)nc2c1 [Compound 1057]", "measurementUnits": "µM", "Kd": 87}

Now consider the entry below.
Reported Kd ( O=[N+]([O-])c1ccc2[nH]c(SCc3ccccc3)nc2c1 [Compound 1061] ) = 180

* * *

System: Ly3 DLBCL cells
Experiment: Growth inhibition of DLBCL cells, Ly3
Format: cell-based
Conditions: Table 2; BCL-6 dependent; 48 hours
measurementName: GI50

# annotated cases, reported GI50 shown
{"compound": "Cc1ccc2c(c1)/C(=C1/SC(=S)N(CCC(=O)O)C1=O)C(=O)N2", "GI50": "> 40 µM"}
{"compound": "O=C(O)CCN1C(=O)SC(C2(O)C(=O)Nc3ccc(I)cc32)C1=O (centres unmarked)", "GI50": "14 µM"}
{"compound": "O=C(O)CCN1C(=O)C(C2(O)C(=O)Nc3ccc(F)cc32)SC1=S (centres unmarked)", "GI50": "> 40 µM"}
{"compound": "O=C(O)CCN1C(=O)/C(=C2/C(=O)Nc3ccc(I)cc32)SC1=S", "GI50": "> 40 µM"}
{"compound": "O=C(O)CCN1C(=O)C(C2(O)C(=O)Nc3ccc(Br)cc32)SC1=S (centres unmarked)", "GI50": "> 40 µM"}

Note to self: GI50 recorded for O=C(O)CCN1C(=O)/C(=C2/C(=O)Nc3ccc([N+](=O)[O-])cc32)SC1=S was 29 µM

GI50 recorded for this compound, O=C(O)CN1C(=O)/C(=C2/C(=O)Nc3ccc(Br)cc32)SC1=S , is > 40 µM

Query Cc1cc(Cl)cc2c1NC(=O)/C2=C1\SC(=S)N(CCC(=O)O)C1=O yields GI50 of > 40 µM

Consider O=C(O)CCN1C(=O)/C(=C2/C(=O)Nc3ccc(Br)cc32)SC1=S . Its measured GI50 is 17 µM

* * *

System: Ly7 DLBCL cells
Test: Growth inhibition of DLBCL cells, Ly7
Format: cell-based
Conditions: Table 2; BCL-6 dependent; 48 hours
measurementName: GI50

A selection of reference data follows.
{"compound": "O=C(O)CCN1C(=O)C(C2(O)C(=O)Nc3ccc(F)cc32)SC1=S (centres unmarked)", "GI50": "> 40 µM"}
{"compound": "O=C(O)CCN1C(=O)C(C2(O)C(=O)Nc3ccc(Br)cc32)SC1=S (centres unmarked)", "GI50": "13 µM"}
{"compound": "O=C(O)CCN1C(=O)SC(C2(O)C(=O)Nc3ccc(I)cc32)C1=O (centres unmarked)", "GI50": "8 µM"}

Entry O=C(O)CCN1C(=O)/C(=C2/C(=O)Nc3ccc(Cl)cc32)SC1=S — recorded GI50 = 23 µM

// GI50 value for O=C(O)CCN1C(=O)SC(C2(O)C(=O)Nc3ccc(Cl)cc32)C1=O (centres unmarked) : 21 µM

Numbers sourced from patent US9943506B2.
